Biological target: C-X-C chemokine receptor type 4 (Homo sapiens, UniProt P61073)
Sequence (P61073 whole entry): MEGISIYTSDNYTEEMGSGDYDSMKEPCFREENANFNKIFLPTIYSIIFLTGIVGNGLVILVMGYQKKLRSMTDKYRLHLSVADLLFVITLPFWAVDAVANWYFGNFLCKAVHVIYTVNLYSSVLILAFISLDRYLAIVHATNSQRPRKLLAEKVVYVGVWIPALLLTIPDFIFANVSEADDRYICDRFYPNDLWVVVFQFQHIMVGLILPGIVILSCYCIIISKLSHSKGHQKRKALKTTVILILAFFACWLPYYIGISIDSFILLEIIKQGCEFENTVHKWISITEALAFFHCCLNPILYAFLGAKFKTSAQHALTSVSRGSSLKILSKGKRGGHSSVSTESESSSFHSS
Assay: Agonist activity at human CXCR4 expressed in mouse C2C12 cells at 20 uM by PathHunter beta-arrestin assay relative to control
Format: cell-based
Activity calls are given as the source filed them. The rule behind the calls is not given here.
RECORDED_METRIC: Activity

# TEST_SMILES, SYSTEM_UNDER_TEST, ENDPOINT_VALUE
data = [
    ("COC(=O)[C@@H]1[C@H]2C[C@@H]3N(CC[C@@]34C(=O)N(Cc3cccc(OC)c3)c3ccccc34)C[C@@H]2CC[C@@H]1OCc1cccc(OC)c1", "C-X-C chemokine receptor type 4 (Homo sapiens, UniProt P61073)", "inactive"),
    ("COC(=O)[C@@H]1[C@H]2C[C@@H]([C@@]3(CCn4cc(CCCCO)nn4)C(=O)Nc4ccccc43)N(C#N)C[C@@H]2CC[C@@H]1O", "C-X-C chemokine receptor type 4 (Homo sapiens, UniProt P61073)", "inactive"),
    ("COC(=O)[C@@H]1[C@H]2C[C@H]3OCc4ccccc4-n4c3c(c3ccccc34)CCN(C#N)C[C@@H]2CC[C@@H]1O", "C-X-C chemokine receptor type 4 (Homo sapiens, UniProt P61073)", "inactive"),
]

* * *

Molecular target: 5-hydroxytryptamine receptor 2C (Homo sapiens, UniProt P28335)
Sequence (P28335 whole entry): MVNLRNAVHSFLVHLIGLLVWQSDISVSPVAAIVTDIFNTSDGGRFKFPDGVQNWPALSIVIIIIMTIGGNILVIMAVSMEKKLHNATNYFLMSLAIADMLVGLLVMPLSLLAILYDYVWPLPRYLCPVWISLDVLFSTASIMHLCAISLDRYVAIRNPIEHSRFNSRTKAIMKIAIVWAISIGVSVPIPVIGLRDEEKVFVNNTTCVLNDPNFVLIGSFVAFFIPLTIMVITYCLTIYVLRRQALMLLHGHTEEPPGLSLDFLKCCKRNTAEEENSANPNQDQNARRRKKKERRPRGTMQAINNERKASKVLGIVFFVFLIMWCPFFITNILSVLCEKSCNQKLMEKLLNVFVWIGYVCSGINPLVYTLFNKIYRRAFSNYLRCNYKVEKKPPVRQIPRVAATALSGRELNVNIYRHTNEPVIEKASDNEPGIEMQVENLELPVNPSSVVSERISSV
Assay: Antagonist activity at HTR2C in human U2OS cells by PathHunter beta-arrestin assay
pIC50: −log10 of the molar value.
RECORDED_METRIC: pIC50

# TEST_SMILES, RECORDED_METRIC, ENDPOINT_VALUE
rows = [
    ("COC(=O)[C@@H]1[C@H]2C[C@@H](c3[nH]c4ccccc4c3CCn3cc(-c4cccc(Cl)c4)nn3)N(C#N)C[C@@H]2CC[C@@H]1O", "pIC50", 6.74),
]

* * *

Molecular target: Vasopressin V2 receptor (Homo sapiens)
Sequence (P30518 whole entry): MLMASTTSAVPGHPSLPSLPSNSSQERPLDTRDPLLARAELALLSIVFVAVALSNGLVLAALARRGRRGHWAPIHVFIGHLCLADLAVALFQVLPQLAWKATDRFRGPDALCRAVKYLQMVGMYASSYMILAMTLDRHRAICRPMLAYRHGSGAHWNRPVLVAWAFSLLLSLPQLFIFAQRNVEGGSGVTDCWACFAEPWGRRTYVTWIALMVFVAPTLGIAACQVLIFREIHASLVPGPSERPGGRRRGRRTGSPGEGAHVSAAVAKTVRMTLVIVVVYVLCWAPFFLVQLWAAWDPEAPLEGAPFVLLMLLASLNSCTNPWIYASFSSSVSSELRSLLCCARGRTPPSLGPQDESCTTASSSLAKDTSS
Test: Antagonist activity at human AVPR2 by PathHunter beta-arrestin assay
Conditions: read-out: IC50
RECORDED_METRIC: IC50

# TEST_SMILES, ENDPOINT_VALUE
records = [
    ("COC(=O)[C@@H]1[C@H]2C[C@@H]3N(CC[C@@]34C(=O)N(Cc3cccc(OC)c3)c3ccccc34)C[C@@H]2CC[C@@H]1OCc1cccc(OC)c1", "459 nM"),
]

* * *

Target: Prolactin-releasing peptide receptor (Homo sapiens) (UniProt P49683)
Sequence (P49683 whole entry): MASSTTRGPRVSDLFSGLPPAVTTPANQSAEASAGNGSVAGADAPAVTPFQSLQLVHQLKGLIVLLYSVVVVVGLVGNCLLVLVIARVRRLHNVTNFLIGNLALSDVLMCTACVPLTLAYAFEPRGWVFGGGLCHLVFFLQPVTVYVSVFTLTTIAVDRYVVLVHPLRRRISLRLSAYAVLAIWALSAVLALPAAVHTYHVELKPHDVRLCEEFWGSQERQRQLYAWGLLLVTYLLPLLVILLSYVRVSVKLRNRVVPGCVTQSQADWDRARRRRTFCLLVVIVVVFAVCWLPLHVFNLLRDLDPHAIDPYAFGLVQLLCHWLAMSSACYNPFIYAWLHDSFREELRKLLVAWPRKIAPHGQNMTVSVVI
Assay: Antagonist activity at human PRLHR expressed in CHO-K1 cells at 20 uM by PathHunter beta-arrestin assay relative to control
Format: cell-based
Details: filed as antagonist
Listed here are compounds together with their documented inhibition.
RECORDED_METRIC: inhibition (%)

# TEST_SMILES, ENDPOINT_VALUE
measured = [
    ("COC(=O)[C@@H]1[C@H]2C[C@@H]3N(CC[C@@]34C(=O)N(c3cncc(OC)n3)c3ccccc34)C[C@@H]2CC[C@@H]1O", 2),
    ("COC(=O)[C@@H]1[C@H]2C[C@@H]([C@@]3(CCn4cc(CCCCO)nn4)C(=O)Nc4ccccc43)N(C#N)C[C@@H]2CC[C@@H]1O", 9),
    ("COC(=O)[C@@H]1[C@H]2C[C@@H](OCc3ccc(Br)cc3)c3[nH]c4ccccc4c3CCN(C#N)C[C@@H]2CC[C@@H]1O", 82),
    ("COC(=O)[C@@H]1[C@H]2C[C@@H](c3[nH]c4ccccc4c3CCn3cc(-c4cccc(Cl)c4)nn3)N(C#N)C[C@@H]2CC[C@@H]1O", 19),
    ("COC(=O)[C@@H]1[C@H]2C[C@@H]3N(CC[C@@]34C(=O)N(Cc3cccc(OC)c3)c3ccccc34)C[C@@H]2CC[C@@H]1OCc1cccc(OC)c1", 63),
    ("COC(=O)[C@@H]1[C@H]2C[C@@H]3OCc4ccccc4-n4c3c(c3ccccc34)CCN(C#N)C[C@@H]2CC[C@@H]1O", 5),
]
